- assayNotes: Blood brain barrier penetration assay in rats (short oral absorption model)
- Type: in vivo
- runConditions: male, Han Wistar, rat, in vivo, po, Kp,uu CSF

| mol | Kp uu |
| --- | --- |
| Cc1cc(Nc2ncnc3cccc(O[C@@H]4C[C@H]5CC[C@@H](C4)N5C)c23)ccc1Oc1ccn2ncnc2c1 | 0.07 |

###

Each entry below carries its reported Kp uu.
- assayNotes: Blood brain barrier penetration assay in rats (short oral absorption model)
- Assay type: in vivo
- runConditions: male, Han Wistar, rat, brain, po, male Han Wistar rats, oral; AUC(brain)/AUC(blood or plasma) x fu ratio; read-out: Kp,uu brain

| molecule | Kp uu |
| --- | --- |
| COc1cc(O[C@H]2CCN(C)CC2(F)F)c2c(Nc3ccc(Oc4ccn5ncnc5c4)c(C)c3)ncnc2c1 (single isomer, unassigned) [Compound 6] | 0.18 |
| COc1cc(OC2CCN(C)CC2(F)F)c2c(Nc3cc(C)c(Oc4ccn5ncnc5c4)cc3F)ncnc2c1 (single isomer, unassigned) [Compound 14] | 0.04 |
| Cc1cc(Nc2ncnc3cc(F)cc(OC4CCN(C)CC4(F)F)c23)ccc1Oc1ccn2ncnc2c1 (single isomer, unassigned) [Compound 17] | 0.07 |
| [2H]C1(Oc2cc(OC)cc3ncnc(Nc4ccc(Oc5ccn6ncnc6c5)c(C)c4)c23)CCN(C)CC1(F)F (racemic) [Compound 27] | 0.1 |
